The reported numbers originate from PubChem BioAssay.

Tested on: Plasmodium falciparum Sir2 (PF13_0152, Sir2A)
assay procedure: pfSir2 binders on small-molecule microarrays, primary screen, biochemical, small-molecule microarray, 635 nm fluorescence (AID 1098);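 also: score merges spot fluorescence intensity with its signal-to-noise ratio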
measurement parameters: small-molecule microarray binding, fluorescence 635 nm; higher = more signal
Recorded composite z-score by entry
Number, no unit, nothing else.

Here is how some compounds turned out for composite z-score.
{"columns": ["smiles str", "composite z-score"],
 "data": [
  ["CCOC(=O)NN=C1C[C@@H](O)[C@@H](O)[C@@H]2[C@@H]3C(=O)N(C(C)(C)C)C(=O)[C@@H]3CC[C@@H]12", -0.241],
  ["COCCOC(=O)N1C(=O)[C@@]2(c3cc(C#Cc4ccc(OC)cc4)ccc31)[C@H](c1ccc(O)cc1)N1[C@H](c3ccccc3)[C@H](c3ccccc3)OC(=O)[C@H]1[C@@H]2C(N)=O", 1.49],
  ["[N-]=[N+]=Nc1ccccc1C[C@@]1(C(N)=O)N=C(c2ccc(OCCCO)cc2)O[C@@H]1c1ccccc1", 0.616]
]}

Next, consider the following compound.
Any idea what its composite z-score is? The compound is "CC(C)NC(=O)[C@@H]1c2ccccc2C(=O)N(CC23CC4CC(CC(C4)C2)C3)[C@H]1c1ccc(CO)cc1"
1.45

* * *

assay procedure: osmotic lysis modulators in infected erythrocytes, primary screen, PSAC antagonist project, cell-based, P. falciparum Indochina, OD700, 3 h (AID 1156)
measurement parameters: higher = more signal, called active from +8 up or from −8 down
measured metric: z-score
Number, no unit, nothing else.

Any idea what its z-score is? The compound is "COC(=O)CC=C[C@@H](C)[C@@H](C=NO[C@H](C)c1cn([C@@H]2COC[C@H]2O)nn1)OC"
0.5

And what about the compound "CCCNC(=O)OC[C@H]1O[C@H](CCON=CC[C@@H]2C=C[C@H](OC(C)=O)[C@@H](COC(C)=O)O2)C=C[C@@H]1Oc1ccc(OC)cc1" ?
0.126

* * *

assayed target: Calmodulin-1 (Homo sapiens)
assay procedure: calcium-bound CALM1 binders on microarrays, profiling panel, artefact control for SMM control-protein annotation, biochemical, small-molecule microarray, Cy5-labelled CALM1, plus calcium (AID 1112);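 also: score merges spot fluorescence with signal to noise from triplicate slides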
measurement parameters: Cy5-CALM1 binding fluorescence, higher = more signal
measured metric: composite z-score
Number, no unit, nothing else.

Here is how some compounds turned out for composite z-score.
{"columns": ["compound", "composite z-score"],
 "data": [
  ["CCCC[C@@H](O)C1=C(C)C[C@H]2C(=O)N(Cc3ccccc3)C(=O)[C@H]2[C@H]1CO", -0.611],
  ["CCc1cc2c(nc1CC)CCN(CCC(C)=NOC[C@@H](O)[C@H]1O[C@@H]3OC(C)(C)O[C@@H]3[C@H]1O)C2", 0.0363],
  ["COCCCNC(=O)[C@@]1(C)c2ccccc2C(=O)N(Cc2ccc(OC(F)(F)F)cc2)[C@H]1c1ccc(CO)cc1", 0.751],
  ["Cc1ccc(C2CC=C(C(=O)O)CN2S(=O)(=O)c2ccc(C)cc2)cc1 (stereo not drawn)", 0.15],
  ["CN1C(=O)C2C=CC(C(O)c3ccc(I)cc3)N(NC(=O)OC(C)(C)C)C2C1=O (stereo not drawn)", 0.202]
]}

Find the measured composite z-score: item "O=C1C2=CC[C@H]3C(=O)N(Cc4ccc5c(c4)OCO5)C(=O)[C@H]3[C@H]2[C@H](O)[C@@H]2O[C@H]12" , target or system Calmodulin-1 (Homo sapiens).
-0.502
